Target: hNTS2 receptor (Homo sapiens, UniProt O95665)
Construct: membranes prepared from them
Sequence (O95665 whole entry): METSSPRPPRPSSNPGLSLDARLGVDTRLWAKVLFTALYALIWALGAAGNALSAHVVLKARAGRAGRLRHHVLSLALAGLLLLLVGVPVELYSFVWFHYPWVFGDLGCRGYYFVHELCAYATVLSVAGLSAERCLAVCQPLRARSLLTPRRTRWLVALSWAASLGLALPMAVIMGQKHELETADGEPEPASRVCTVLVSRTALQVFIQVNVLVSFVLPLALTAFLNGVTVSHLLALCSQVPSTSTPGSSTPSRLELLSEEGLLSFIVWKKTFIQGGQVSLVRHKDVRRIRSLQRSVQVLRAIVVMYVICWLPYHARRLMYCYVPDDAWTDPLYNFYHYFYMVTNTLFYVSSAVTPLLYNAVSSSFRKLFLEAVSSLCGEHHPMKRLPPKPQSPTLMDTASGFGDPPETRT
Assay: Competitive radioligand binding assay on the hNTS2 receptor
Settings: displacement of 125I-[Tyr3]-NT, membranes of 1321N1 cells expressing hNTS2; read-out: IC50 NTS2 (converted)
Where a SMILES comes first, the peptide text is derived from it. Bridges are numbered along the chain shown (N, C = ends). [ ]: non-standard residue; d: D form. ξ: configuration not given here. Dip = N[C@H](C(=O)O)C(c1ccccc1)c1ccccc1; Phe(4-I) = N[C@@H](Cc1ccc(I)cc1)C(=O)O; Bta = N[C@@H](Cc1csc2ccccc12)C(=O)O; 3Pal = N[C@@H](Cc1cccnc1)C(=O)O; Cha = N[C@@H](CC1CCCCC1)C(=O)O; Cit = NC(=O)NCCC[C@H](N)C(=O)O; Ile(3ξ) = CCC(C)[C@H](N)C(=O)O; AllylGly = C=CC[C@H](N)C(=O)O; Pen = CC(C)(S)[C@H](N)C(=O)O; S5 = C=CCCC[C@](C)(N)C(=O)O; Nle = CCCC[C@H](N)C(=O)O; Orn = NCCC[C@H](N)C(=O)O; Dap = NC[C@H](N)C(=O)O
quantity.name: IC50
I'd appreciate it if you wrote the number followed by its unit.

Tell me the measured IC50 of CC(C)C[C@H](NC(=O)[C@H](Cc1ccc(O)cc1)NC(=O)[C@@H]1CC=CC[C@H](N)C(=O)N[C@@H](CCCNC(N)=O)C(=O)N[C@@H](CCCCN)C(=O)N1)C(=O)O [compound 147, c[G(All)citrullineKG(All)]YL] (H-[AllylGly][Cit]K[AllylGly]YL-OH; staple 1-4) , please.
600 nM

Queued: CC(C)C[C@H](NC(=O)[C@H](Cc1ccc(O)cc1)NC(=O)[C@@H]1CC=CC[C@H](N)C(=O)N[C@@H](CCCN)C(=O)N[C@@H](CCCCN)C(=O)N1)C(=O)O [compound 79, c[G(All)OrnKG(All)]YL] (H-[AllylGly][Orn]K[AllylGly]YL-OH; staple 1-4)
77.5 nM

And then CC(C)C[C@H](NC(=O)[C@H](Cc1cccnc1)NC(=O)[C@@H]1CC=CC[C@H](N)C(=O)N[C@@H](CCCCN)C(=O)N[C@@H](CCCCN)C(=O)N1)C(=O)O [compound 169, c[G(All)KKG(All)]A(3-pyridyl)L] (H-[AllylGly]KK[AllylGly][3Pal]L-OH; staple 1-4) , what is it?
234 nM

Note, next up: CCCC[C@@H]1NC(=O)[C@@H](N)CC=CC[C@@H](C(=O)N[C@@H](Cc2ccc(O)cc2)C(=O)N[C@@H](CC(C)C)C(=O)O)NC(=O)[C@H](CCCCN)NC1=O [compound 85, c[G(All)NleKG(All)]YL] (H-[AllylGly][Nle]K[AllylGly]YL-OH; staple 1-4)
1070 nM

How about this compound: CC(C)C[C@H](NC(=O)[C@H](Cc1ccc(O)cc1)NC(=O)[C@@H]1CC=CCCC[C@](C)(N)C(=O)N[C@@H](CCCCN)C(=O)N[C@@H](CCCCN)C(=O)N1)C(=O)O [compound 89, c[G(alpha-Me-(4-Pentenyl))KKG(All)]YL] (H-[S5]KK[AllylGly]YL-OH; staple 1-4)
13.2 nM

Request: CC(C)C[C@H](NC(=O)[C@@H](NC(=O)[C@@H]1CC=CC[C@H](N)C(=O)N[C@@H](CCCCN)C(=O)N[C@@H](CCCCN)C(=O)N1)C(c1ccccc1)c1ccccc1)C(=O)O [compound 140, c[G(All)KKG(All)]A (diphenyl)L] (H-[AllylGly]KK[AllylGly][Dip]L-OH; staple 1-4)
631 nM

Now consider CC(C)C[C@H](NC(=O)[C@H](Cc1ccc(O)cc1)NC(=O)[C@H]1NC(=O)[C@H](CCCCN)NC(=O)[C@H](CCCCN)NC(=O)[C@@H](N)C(C)(C)SSC1(C)C)C(=O)O [compound 155, c[(Pen)KK(Pen)]YL] (H-[Pen]KK[Pen]YL-OH; disulfide 1-4) .
318 nM

Next compound up: CC(C)C[C@H](NC(=O)[C@H](Cc1ccc(I)cc1)NC(=O)[C@@H]1CC=CC[C@H](N)C(=O)N[C@@H](CCCCN)C(=O)N[C@@H](CCCCN)C(=O)N1)C(=O)O [compound 78, c[G(All)KKG(All)]F(4-iodo)L] (H-[AllylGly]KK[AllylGly][Phe(4-I)]L-OH; staple 1-4)
15.5 nM

Further, for CC(C)C[C@H](NC(=O)[C@H](Cc1ccc(O)cc1)NC(=O)[C@@H]1CC=CC[C@H](N)C(=O)N[C@@H](CCCCN)C(=O)N[C@@H](CCC(=O)O)C(=O)N1)C(=O)O [compound 61, c[G(All)KEG(All)]YL] (H-[AllylGly]KE[AllylGly]YL-OH; staple 1-4) ?
12400 nM

Same thing, different compound: NCCCC[C@@H]1NC(=O)[C@H](CCCCN)NC(=O)[C@@H](N)CC=CC[C@@H](C(=O)N[C@@H](Cc2ccc(O)cc2)C(=O)N[C@@H](CC2CCCCC2)C(=O)O)NC1=O [compound 31, c[G(All)KKG(All)]YA(Ch)] (H-[AllylGly]KK[AllylGly]Y[Cha]-OH; staple 1-4)
8.67 nM

Now give it for CC(C)C[C@H](NC(=O)[C@H](Cc1csc2ccccc12)NC(=O)[C@@H]1CC=CC[C@H](N)C(=O)N[C@@H](CCCCN)C(=O)N[C@@H](CCCCN)C(=O)N1)C(=O)O [compound 168, c[G(All)KKG(All)]A(3-benzothienyl)L] (H-[AllylGly]KK[AllylGly][Bta]L-OH; staple 1-4) too.
102 nM

Can you handle CCCC[C@H](NC(=O)[C@H](Cc1ccc(O)cc1)NC(=O)[C@@H]1CC=CC[C@H](N)C(=O)N[C@@H](CCCCN)C(=O)N[C@@H](CCCCN)C(=O)N1)C(=O)O [compound 28, c[G(All)KKG(All)]YNle] (H-[AllylGly]KK[AllylGly]Y[Nle]-OH; staple 1-4) next?
381 nM

Request: CC(C)C[C@H](NC(=O)[C@H](Cc1ccc(O)cc1)NC(=O)[C@@H]1CC(=O)NC[C@H](N)C(=O)N[C@@H](CCCCN)C(=O)N[C@@H](CCCCN)C(=O)N1)C(=O)O [compound 94, c[DapKKD]YL] (H-[Dap]KKDYL-OH; lactam 1-4)
22800 nM

Also CCC(C)[C@H](NC(=O)[C@H](Cc1ccc(O)cc1)NC(=O)[C@@H]1CC=CC[C@H](N)C(=O)N[C@@H](CCCCN)C(=O)N[C@@H](CCCCN)C(=O)N1)C(=O)O (some centres unmarked) [compound 14, c[G(All)KKG(All)]YI] (H-[AllylGly]KK[AllylGly]Y[Ile(3ξ)]-OH; staple 1-4) ?
10200 nM
